Experiment: Human HepG2 cell viability assay in 384 well format
Type: toxicity, cell-based
Parameters: dose 125 nL, time 70.5 hour; concentration not given beside the values
Conditions: HepG2 cells, read-out: Inhibition
cytotoxicity at 70.5 h reference
Give the value in % but do not write % after it.

Examples with their reported cytotoxicity at 70.5 h follow.
compound: O=C1NCCCC[C@@H]1Nc1ccc(-c2nc(C3CC3)no2)cn1
unit.of.measurement: %
cytotoxicity at 70.5 h: -2.61

compound: COc1cc(NC(=O)c2ccc(C)c(F)c2)c(C(=O)N(C)C)cc1OC
unit.of.measurement: %
cytotoxicity at 70.5 h: -12.5

compound: O=C(NCc1cccc(F)c1)c1cccc(C(=O)N2CCCC2)n1
unit.of.measurement: %
cytotoxicity at 70.5 h: 3.72

compound: CC(NC(=O)Nc1cc(F)cc(F)c1)c1nc[nH]n1 (configuration not stated)
unit.of.measurement: %
cytotoxicity at 70.5 h: -5.9

compound: c1ccc(-c2noc(CCNC3CCOC4(CCOCC4)C3)n2)nc1 (configuration not stated)
unit.of.measurement: %
cytotoxicity at 70.5 h: -8.03

Input line: Given the entry CC(C(=O)N1CCCCC1)N1CCN(c2ncc(Cl)cn2)CC1 (configuration not stated) , report its measured cytotoxicity at 70.5 h.
Output line: -0.389

Input line: Entry CCOCCNC(=O)c1cnc(Sc2nccn2C)c(Cl)c1 : reported cytotoxicity at 70.5 h = ?
Output line: 2.36

Input line: Form field: reported cytotoxicity at 70.5 h of Cc1ccsc1CN(C)c1cc(N2CCOCC2)ncn1
Output line: -2.06

Input line: Any idea what its cytotoxicity at 70.5 h is? The compound is Cc1ccc(N2CCC(Nc3ccc4nnc(C)n4n3)CC2)nc1
Output line: -1.55

Input line: Look up cytotoxicity at 70.5 h for this compound: Cc1cc(C)nc(C2CCCNC2)n1 (configuration not stated)
Output line: 17.9

Input line: Give its cytotoxicity at 70.5 h value. Item: COc1ccc2[nH]c3c(c2c1)CN(c1cc(NCCO)nc(N)n1)CC3
Output line: -3.57

Input line: Return reported cytotoxicity at 70.5 h; argument: CCS(=O)(=O)Cc1ccn(-c2cccc(F)c2)n1
Output line: -3.75

Input line: Given the entry CCN(CC1CCOC1)S(=O)(=O)Cc1ccccc1Cl (configuration not stated) , report its measured cytotoxicity at 70.5 h.
Output line: -6.21

Input line: Tell me the measured cytotoxicity at 70.5 h of Oc1cccc(CN2C[C@H]3CC[C@@H]2CN(Cc2ccncc2)C3)c1 , please.
Output line: -12.3

Input line: Tell me the measured cytotoxicity at 70.5 h of Cc1nn(C)c2ncnc(N3CCCC(OCc4ccccn4)C3)c12 (configuration not stated) , please.
Output line: 1.57

Input line: // returns reported cytotoxicity at 70.5 h for input CC(=O)Nc1nc(CN2CCOC(Cn3nc(C)cc3C)C2)cs1 (configuration not stated)
Output line: 10.6
